Assay: In vivo PK study (plasma and brain exposure)
Set-up: species or system CD1 mouse
Settings: male, serum, iv; CD1 mouse, i.v. 2 mg/kg; read-out: IV-2mpk AUClast

| Molecule | Unit Abbreviation | AUC(0-t) |
| --- | --- | --- |
| CNC(=O)c1cc(Oc2ccc3nc(N[C@@H]4CCCC[C@H]4O)sc3c2)ccn1 [BLZ945, reference compound] | ng·h/mL | 7380 |
| COc1cnc2c(Cc3cnc(OCc4cc5n(n4)CCOC5)c(OC)c3)ccnc2c1 [Example 73] | ng·h/mL | 9090 |
| COc1ccc(COc2ncc(Cc3ccnc(-c4cnn(C)c4)n3)cc2OC)nc1 [Comparator A, reference compound] | ng·h/mL | 4590 |
| COc1ccc(COc2ccc(Cc3cnc(N)nc3N)cc2OC)cc1 [GW2580, reference compound] | ng·h/mL | 902 |
| COc1ccc(COc2ncc(Cc3ccnc4cc(-c5ccn(C)n5)cnc34)cc2OC)nc1 [Example 134] | ng·h/mL | 1860 |
| COc1ccc(COc2ncc(Cc3ccnc4cc(OC)cnc34)cc2OC)nc1 [Example 16] | ng·h/mL | 4460 |
| COc1cnc2c(Cc3cnc(OCc4ccc(C(F)(F)F)nc4)c(OC)c3)ccnc2c1 [Example 45] | ng·h/mL | 10700 |
| COc1cnc2c(Cc3cnc(OCc4cc5n(n4)C[C@H](OC)C5)c(OC)c3)ccnc2c1 [Example 136] | ng·h/mL | 4940 |
| COc1ccc(COc2ncc(Cc3ccnc4cc(N5CCN(C)CC5)cnc34)cc2OC)nc1 [Example 116] | ng·h/mL | 566 |
| COc1ncc(F)cc1CNc1ccc(Cc2c[nH]c3ncc(C)cc23)c(F)n1 [PLX5622, reference compound] | ng·h/mL | 6100 |

// provenance: patent US20250360145A1
